Tested on: HOP-62 NSCLC
Experimental details: NCI tumour cell line growth inhibition, 48 h; in the data active = GI50 below about 0.43 µM; inactive = the rest
Pick one and only one: active, inactive

Consider the worked cases shown below.
CC(=O)OCC1OC(O[C@@H]2C[C@H]3C(C)(C)[C@H](OC(C)=O)CC[C@]3(C)[C@H]3CCC4=C([C@@H](C)C[C@@H](O)[C@H](O)C(C)(C)O)CC[C@@]4(C)[C@@]32C)C(O)C(O)C1O (stereo partly drawn)
inactive
CC(=O)[CH-]C(=O)c1ccccc1.CC(=O)[CH-]C(=O)c1ccccc1.CCCCCCCCCCCCCCCCCC(=O)[O-].CCCCCCCCCCCCCCCCCC(=O)[O-].[Ti+4]
inactive
Oc1ccccc1/C=N/Nc1ccc2ccccc2n1
inactive

[ask] What did the test return for CC(=O)c1ccc(Nc2cc(-c3ccccc3)nc3c(O)cccc23)cc1 ?
[reply] inactive

[ask] For this compound, state the assay outcome: CCOc1ccc(S(=O)(=O)/N=C2\C=C(SCC(=O)O)C(=O)c3ccccc32)cc1
[reply] inactive

[ask] GET /call?item= COc1ccc(C(=O)Nc2ncc(Cc3ccc(Cl)cc3)s2)cc1 returns the recorded outcome of this test.
[reply] active

[ask] Dear all, I need the recorded test outcome for COc1cc(-n2cc(-c3ccc(Cl)c(Cl)c3)nc2SCc2ccccc2)cc(OC)c1OC , thank you.
[reply] inactive

[ask] // return assay outcome for COc1ccc(NC(=O)Nc2n[nH]c3ccccc23)cc1
[reply] inactive

* * *

System: M14 melanoma
Experimental details: NCI tumour cell line growth inhibition, 48 h; in the data active = GI50 below about 0.43 µM; inactive = the rest
Allowed answers: active, inactive

Worked examples, 4 compounds total:
Nc1n[nH]c2ccc([C@@H]3Nc4ccc5[nH]ncc5c4[C@H]4[C@H]5CCC(C5)[C@H]43)cc12
active
COc1cc(-n2cc(-c3ccc(Cl)c(Cl)c3)nc2SCc2ccccc2)cc(OC)c1OC
inactive
C1COCCN1.C1COCCN1.N.N.[Cl-].[Pt+2]
inactive
CN1CCN(CC#Cc2cccc(C(=O)c3cnn(-c4ccc(F)cc4)c3N)c2)CC1
inactive

# ---- query compound ----
[ask] // return assay outcome for Cc1ccn2c3c(c(C(=O)O)c2c1)C(=O)c1ccccc1C3=O
[reply] inactive

* * *

Test system: UO-31 renal
Experimental details: NCI tumour cell line growth inhibition, 48 h
Measure: TGI

Completed entries (count: 3):
COc1ccc(-c2cc(-c3cc(Cl)ccc3Cl)nc3[nH]c(-c4cc(F)c(Cl)cc4Cl)cc(=O)c23)cc1
> 100 µM
CN1CCN(CC#Cc2cccc(C(=O)c3cnn(-c4ccc(F)cc4)c3N)c2)CC1
> 25 µM
COc1cc2c(c3c1C=CCO3)C(=O)c1ccccc1C2=O
> 100 µM

Batch lookup, TGI per entry.
1. O=c1[nH]c2ccccc2cc1C(Cl)=C(Cl)Cl
2. CC(CO)(CO)N=Cc1cc(I)cc(I)c1O
3. O=C1CC(O)c2c1csc2Br (stereo unspecified)
4. OCC1CCCC(n2cnc3c(=S)nc[nH]c32)O1 (stereo unspecified)
5. O=c1[nH]cnc2c(C3OC(CO)C(O)C3O)c[nH]c12 (stereo unspecified)
6. CC(C)(C)OC(=O)NC(C)(C)C(=O)NCCC(=O)O
7. COC(=O)c1cc(CC(C)C)c2c(c1)[nH]c1ccccc12
8. CCn1c(-c2nonc2N)nc2c(C#CCN)ncc(OCCCN)c21

[reply]
1: > 100 µM; 2: 34.6 µM; 3: 53.3 µM; 4: > 100 µM; 5: > 100 µM; 6: > 100 µM; 7: > 100 µM; 8: > 25 µM

* * *

System: SN12C renal
Experimental details: NCI tumour cell line growth inhibition, 48 h
Measure: GI50

// solved cases for GI50 follow
Clc1ccccc1C(c1ccccc1)(c1ccccc1)n1ccnc1
2.63 µM
NC(CO)Cc1cnc[nH]1 (stereo unspecified)
> 100 µM
C=C1C(O)C2CCC(C)(C)C(=O)C2=C(CC(C)C)C12CC2 (stereo unspecified)
63.8 µM
O=C(Nc1nc2ccccc2s1)OCC(F)(F)F
> 100 µM
COc1cc2c3c(cccc3c1)C(=O)N(CCN1CCCC1)C2=O
2.41 µM
C=CC(=O)N[C@H]1C=C(C)c2c(-c3cnc4ccccc4c3)c3c(N)ncnc3n2C1
12.9 µM
CCCCCCCCCCCCCC(=S)NCCCC[C@H](NC(=O)OCc1ccccc1)C(=O)Nc1ccccc1
3.81 µM
CN1CCN(CC#Cc2cccc(C(=O)c3cnn(-c4ccc(F)cc4)c3N)c2)CC1
> 25 µM
CC(C)(C)c1cc(O)c(O)c(C(C)(C)C)c1
4.82 µM
CCOc1ccc(S(=O)(=O)/N=C2\C=C(SCC(=O)O)C(=O)c3ccccc32)cc1
2.15 µM

Please look at the following compound next.
[ask] Field request: GI50 | item: O=C(NNc1nc2c(F)cccc2n2cccc12)c1cnccn1
[reply] 0.602 µM

* * *

System: NCI/ADR-RES ovarian
Experimental details: NCI tumour cell line growth inhibition, 48 h
Outcome label depends on TGI relative to 40 µM: at/above gives T, below gives F.

Example results:
CC(CO)(CO)N=Cc1cc(I)cc(I)c1O
T
Clc1nc(Cl)nc(NC23CC4CC(CC(C4)C2)C3)n1
T

[ask] Does the compound O=C1CC(c2ccco2)C2(C(=O)NC(=O)NC2=O)C(c2ccco2)C1 (centres undefined) have recorded TGI that is 40 µM or more?
[reply] T

[ask] Quick check, TGI >= 40 µM? NC(N)=N/N=C(/c1ccccc1)c1ccc(F)cc1
[reply] F

[ask] Check this compound for TGI at or above 40 µM: Cc1cn(C2CC(N)C(CN)O2)c(=O)[nH]c1=O (centres undefined)
[reply] T

[ask] hey, is TGI for this one >= 40 µM? CC(=O)OCC1OC(O[C@@H]2C[C@H]3C(C)(C)[C@H](OC(C)=O)CC[C@]3(C)[C@H]3CCC4=C([C@@H](C)C[C@@H](O)[C@H](O)C(C)(C)O)CC[C@@]4(C)[C@@]32C)C(O)C(O)C1O (some centres undefined)
[reply] T

[ask] // inclusive: TGI at least 40 µM? input: COc1ccc(-c2cc(-c3cc(Cl)ccc3Cl)nc3[nH]c(-c4cc(F)c(Cl)cc4Cl)cc(=O)c23)cc1
[reply] F

* * *

Please provide measured TGI for the entries that follow.
Tested on: T-47D breast
Experimental details: NCI tumour cell line growth inhibition, 48 h

O=c1[nH]c2nc3ccccc3c(=O)n2/c1=C/c1ccc(O)cc1
> 100 µM
CC(=O)OCC1OC(O[C@@H]2C[C@H]3C(C)(C)[C@H](OC(C)=O)CC[C@]3(C)[C@H]3CCC4=C([C@@H](C)C[C@@H](O)[C@H](O)C(C)(C)O)CC[C@@]4(C)[C@@]32C)C(O)C(O)C1O (some centres undefined)
30.3 µM
COc1cc2c3c(cccc3c1)C(=O)N(CCN1CCCC1)C2=O
8.76 µM

Turning now to a further record.
[ask] Entry CN(C)CC(=O)N1CCC(c2ccc(NC(=O)c3ncc(C#N)[nH]3)c(C3=CCCCC3)c2)CC1 has what TGI?
[reply] 28.8 µM

* * *

Would you mind telling me the reported TGI of each entry?
Test system: SK-MEL-5 melanoma
Experimental details: NCI tumour cell line growth inhibition, 48 h

Known TGI results, listed for orientation:
CCOC(=O)c1cc(C2(O)CCN(Cc3ccccc3)C2=O)c(-c2cc(C)no2)[nH]1 (stereo unspecified)
> 100 µM
Cc1ccc2c(c1C)CC1(Cc3c(ccc4c3CCC4)C1=O)C2=O (stereo unspecified)
> 100 µM
CC[C@@H]1CC[C@@H]2[C@H](CC[C@]3(C)[C@@H](O)CC[C@@H]23)[C@H]1C(=O)O
> 100 µM
OCC1CCCC(n2cnc3c(=S)nc[nH]c32)O1 (stereo unspecified)
> 100 µM
CC(C)CC(N)C(=O)OCN1C(=O)C2C3C=CC(C2C1=O)C1C2C(=O)N(COC(=O)C(N)CC(C)C)C(=O)C2C31 (stereo unspecified)
> 100 µM

[ask] Which TGI reading was recorded for the compound O=C(O)c1ccc(NC(c2ccccc2)c2ccc3cccnc3c2O)cc1 (stereo unspecified) ?
[reply] 29.8 µM

* * *

System: MOLT-4 leukemia
Experimental details: NCI tumour cell line growth inhibition, 48 h
Kindly state TGI for each of the entries shown.

These solved cases illustrate the format of a correct answer.
COc1cc2oc(-c3ccc(O)cc3)c(OC3OC(C)C(O)C(O)C3O)c(=O)c2c(O)c1OC (stereo not given)
> 100 µM
N#Cc1c(-c2cccs2)c2c(=S)[nH]c(=S)[nH]c2[nH]c1=S
42.7 µM
C#CCNC(=O)NC(CCCNC(=O)OCc1ccccc1)C(=O)OCc1ccccc1 (stereo not given)
> 100 µM
CCN1CCN(c2nc(NCCCNc3ccnc4cc(Cl)ccc34)c3ccccc3n2)CC1
9.04 µM

Could I get TGI for every one of these entries?
1. Fc1cccc(COc2ccc(Nc3ncncc3C#Cc3ccccc3)cc2Cl)c1
2. C#Cc1ccc(-n2c(/C=C/c3ccc(Cl)c(F)c3)nc3ncccc3c2=O)cc1
3. Cc1cc2c(c(C(=O)NCCC(=O)O)c1)Oc1c(cc(C)cc1C(=O)NCCC(=O)O)S2
4. COc1cc2c3c(cccc3c1)C(=O)N(CCN1CCCC1)C2=O
5. CN=C(N)N/N=C(\c1ccccc1)c1ccc(Br)cc1
6. O=C(CSc1nc2ccc([N+](=O)[O-])cc2[nH]1)Nc1ccc(F)c(Cl)c1

[reply]
["> 25 µM", "> 100 µM", "> 100 µM", "> 100 µM", "7.3 µM", "19.9 µM"]
